- method: TLR3 IRF3 reporter activation blockers – cell-based, poly I:C stimulus, luciferase, 10K MLSCN set, primary screen (AID 602277)
- applied conditions: HEK293-TLR3 RL24 IRF3 luciferase reporter, at 10 µM, stronger effect = higher value
inhibition listing for selected molecules.
measurement kind: inhibition (%)

1. Brc1ccc2[nH]ncc2c1 = 22.5
2. O=C(Nc1cccc(F)c1)N1CC=C(n2c(=O)[nH]c3ccccc32)CC1 = 15.5
3. Cc1ccc(-c2nc(-c3cccnc3)no2)c(C)c1 = -111
4. COC(=O)c1cc(Br)ccc1-c1ccc(/C=N/n2nnnc2N)o1 = 24.4
5. O=C(OCc1cccs1)c1ccccc1NS(=O)(=O)c1ccc2c(c1)OCCO2 = -18.1
6. CCC(Sc1nc2n[nH]c(C)c2c(=N)n1-c1cc(Cl)ccc1C)C(=O)N1CCOCC1 (configuration not stated) = 10
7. COC(=O)Nc1ccc(C)cc1NC(=O)OC = -6.68
8. COC(=O)c1ccc(-c2ccc(CNCC(O)c3ccccc3)o2)cc1 (configuration not stated) = 13.8
9. CCn1c(CNc2ccc(C)cc2)nnc1SCC(=O)NCc1ccccc1 = -4.1
10. CC1(C)S[C@@H]2[C@H](NC(=O)[C@H](N)c3ccccc3)C(=O)N2[C@H]1C(=O)O = 28.7
11. COC(=O)Nc1nc2ccc(C(=O)c3ccccc3)cc2[nH]1 = 46.8
12. COc1ccccc1-c1ccc(Nc2cccc(C(C)=O)c2)nn1 = -36.2
13. CSc1ccccc1C(=O)NC1CC2CCC1C2 (configuration not stated) = 24.1
14. Cc1cc(SCC(N)=O)nc(SCC(=O)c2ccccc2)n1 = 21
15. CCc1cc(-c2[nH]ncc2-c2ccc3c(c2)OCO3)c(O)cc1O = -66.6
16. CC(=O)Nc1cccc(NC(=O)CSc2nnnn2C(C)C)c1 = 12.5
17. CC(C)OC(=O)CSc1nnc(Cc2ccccc2)n1Cc1ccco1 = 6.75
18. Clc1cccc(-c2nn3c(Cn4cnc5ccccc54)nnc3s2)c1 = 21.6
19. Cc1ccc(CNC(=O)C2CCN(S(=O)(=O)c3c(C)noc3C)CC2)cc1 = 6.94
20. CCCn1nc(NS(=O)(=O)c2ccccc2)c2cc3ccccc3nc21 = 14.1
21. N#CC(C(=O)CCN1C(=O)C2CC=CCC2C1=O)c1nc2ccccc2[nH]1 (configuration not stated) = 17.1
22. Oc1cccc2ccc(Nc3ccccn3)nc12 = 97.5

* * *

// reported NADPH fluorescence slope for each item listed
- target system: Voltage-gated potassium channel subunit beta-2 (Rattus norvegicus)
- method: enhancers of rat Kvbeta2 NADPH turnover – biochemical, NADPH fluorescence, primary screen (AID 623);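 further: fluorescence intensity change per second fitted from 20 to 320 s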
- applied conditions: Recombinant KvBeta, NADPH fluorescence decrease slope, 10 min; at 10 µM; stronger effect = lower value
measurement kind: NADPH fluorescence slope

1. O=C(Nc1ncnc2sc3c(c12)CCCCC3)c1ccco1 = -1.4e-05
2. COc1cc(C2C3=C(CC(C)(C)CC3=O)Nc3c2c(=O)[nH]c(=O)n3Cc2ccccc2)ccc1O (stereo not drawn) = -8e-05
3. COc1ccc(OC)c(NC(=O)c2cn(C)c(=O)c3cc(OC)c(OC)cc23)c1 = -1.5e-05

* * *

The entries below come with measured inhibition values attached.
- method: blockers of RIG-like receptor reporter activation – cell-based, Sendai virus stimulus, luciferase, 10K MLSCN set, TLR/RLR signaling modifier project, primary screen (AID 602276);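 further: firefly luciferase from ISG56 promoter only with Renilla not read in this screen; 0% = Sendai virus plus DMSO and 100% = medium plus DMSO without virus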
- applied conditions: HEK293 RL24 IRF3 luciferase reporter, at 10 µM, stronger effect = higher value
measurement kind: inhibition (%)

1) Cc1ccc(S(=O)(=O)NCC2CCC(C(=O)NCCCN3CCOCC3)CC2)cc1 (stereo not drawn) = 13
2) CCOc1cccc(Oc2ccc(C(F)(F)F)cn2)c1 = 5.91
3) Clc1ccc(Cn2c(CN3CCCC3)nc3ccccc32)cc1 = 16.5
4) CCC(C)NC(=O)C1CCCN(S(=O)(=O)c2ccc(-n3cnnn3)cc2)C1 (stereo not drawn) = -2.34
5) COc1ccccc1C1/C(=C(\O)c2c(C)nc3c(C)cccn23)C(=O)C(=O)N1CCCN(C)C (stereo not drawn) = 10.7
6) CC(=O)N1CCc2cc(S(=O)(=O)NC(CC(C)C)C(=O)N3CCn4c3nc3ccccc34)ccc21 (stereo not drawn) = 10.1
7) COC(=O)c1cccc(S(=O)(=O)N2CCN(c3nc4ccccc4s3)CC2)c1 = 1.3
8) CN(CC(=O)N1CCN(c2ccc(F)cc2)CC1)S(=O)(=O)c1ccc(F)cc1 = 11.3
9) COc1ccccc1-c1noc(-c2ccco2)n1 = -44.2
10) COc1ccc(CCNC(=O)C2CCN(Cc3nc(-c4cccc(Cl)c4)oc3C)CC2)cc1OC = 6.77
11) COc1ccc(N2C(=O)CC(N3CCN(S(=O)(=O)c4c(F)cccc4F)CC3)C2=O)cc1OC (stereo not drawn) = 9.5
12) CCOc1ccc2cc(C#N)c(SCC(=O)N3CCCC3)nc2c1 = -13.8
13) COc1cccc(C(=O)Nc2cccc(C(=O)N3CCOCC3)c2)c1 = 3.67
14) CCOCCCNC(=O)CCNS(=O)(=O)c1ccc(C)cc1 = -17.9
15) CCCCNC(=O)c1c(C)cc(=O)oc1C = 18.4
16) Cc1cccc(-n2c(N)c(C(=O)N3CCN(C)CC3)sc2=S)c1 = -4.11
17) CCOc1ccc(C(=O)Cc2ccc3oc(C(=O)O)cc3c2)c(O)c1 = 16.4
18) COc1ccc2c(c1)C(=NO)c1cc(OC)ccc1-2 = -23.1
